Test system: TK-10 renal
Assay: NCI tumour cell line growth inhibition, 48 h
Let's look at some compounds and their measured TGI.

Here's what some known entries look like.
O=C(CNS(=O)(=O)Cc1ccccc1)NNc1ccccc1
> 100 µM
COc1ccc(/C=C(\C(C)=O)C(=O)Nc2ccccc2)cc1
> 100 µM
O=C1c2ccccc2C(=O)c2c1nc1ccccc1c2-c1cncc(-c2c3c(nc4ccccc24)C(=O)c2ccccc2C3=O)c1
> 100 µM

Record COC(=O)C1=C(C(=O)OC)C2=S(SC3=C2CCCC3)S1 (stereo unspecified) , field TGI: > 100 µM

Record `Cc1nn(C(=O)CC(=O)Nc2ccc(Cl)cc2)c(C)c1N=Nc1ccccc1C(=O)O` , field TGI: > 100 µM

Record `CCN(CC)CCSc1c2ccccc2nc2c(OC)ccc(OC)c12` , field TGI: 17.3 µM
